Assay: in vitro
Details: dog, microsomes
Outcome measure: microsomal CLint (µL/min/mg)
All answers are understood in µL/min/mg, so give the number only.

Sample records with microsomal CLint:
Compound	microsomal CLint / µL/min/mg
CCc1c(F)ccc2cc(O)cc(-c3ncc4c(N5CCC[C@@](C)(O)C5)nc(OCC5(CN6CCC7(CC6)CN(c6ccc(-c8cn([C@H](C(=O)N9C[C@H](O)C[C@H]9C(=O)N[C@@H](C)c9ccc(-c%10scnc%10C)cc9)C(C)C)nn8)cn6)C7)CC5)nc4c3F)c12 [Compound 118]	17.2
CCc1c(F)ccc2cc(O)cc(-c3ncc4c(N5CCC[C@@](C)(O)C5)nc(OCC5(CN6CCN(c7ccc(-c8cn([C@H](C(=O)N9C[C@H](O)C[C@H]9C(=O)N[C@@H](C)c9ccc(-c%10scnc%10C)cc9)C(C)C)nn8)cn7)CC6)CC5)nc4c3F)c12 [Compound 142]	14.2
CCc1c(F)ccc2cc(O)cc(-c3ncc4c(N5CCC[C@@](C)(O)C5)nc(OCC5(CN6CCC(c7ccc(-c8cn([C@H](C(=O)N9C[C@H](O)C[C@H]9C(=O)N[C@@H](C)c9ccc(-c%10scnc%10C)cc9)C(C)(C)C)nn8)cc7)CC6)CC5)nc4c3F)c12 [Compound 119]	14.9
C=C1CN2[C@H](COCc3ccc(-c4cn([C@H](C(=O)N5C[C@H](O)C[C@H]5C(=O)N[C@@H](C)c5ccc(-c6scnc6C)cc5)C(C)C)nn4)cc3)CC[C@@]2(COc2nc(N3CCC[C@@](C)(O)C3)c3cnc(-c4cc(O)cc5ccc(F)c(CC)c45)c(F)c3n2)C1 [Compound 122]	53
CCc1c(F)ccc2cc(O)cc(-c3ncc4c(N5CCC[C@@](C)(O)C5)nc(OCC5(CN6CCC7(CC6)CN(c6ccc(-c8cn([C@H](C(=O)N9C[C@H](O)C[C@H]9C(=O)N[C@@H](C)c9ccc(-c%10scnc%10C)cc9)C(C)C)nn8)cc6)C7)CC5)nc4c3F)c12 [Compound 75]	22.1

Which microsomal CLint is reported for this compound? CCc1c(F)ccc2cc(O)cc(-c3ncc4c(N5CCC[C@@](C)(O)C5)nc(OCC5(CN6CCC(Oc7cc(-c8cn([C@H](C(=O)N9C[C@H](O)C[C@H]9C(=O)N[C@@H](C)c9ccc(-c%10scnc%10C)cc9)C(C)C)nn8)ccn7)CC6)CC5)nc4c3F)c12 [Compound 136]
20.8
